Taken from patent US11319313B2.

Test: pH-dependent solubility of crystalline salts (48 h equilibration, HPLC)
Type: physicochemical
Conditions: 22 °C, pH 5.6, aqueous buffer, thermodynamic from solid
Where a name gives a salt, the structure may show the parent alone.
MEASURE NAME: solubility at 48 h

The recorded solubility at 48 h for CCc1ccc(CCOc2ccc(CC3SC(=O)NC3=O)cc2)nc1 (stereo not shown) [Pioglitazone HCl Salt, pioglitazone hydrochloride, reference compound] is < 30 µg/mL

----------
Assay: in vivo
Conditions: female, beagle, dog, plasma, po, 10 mg/kg/day
MEASURE NAME: AUC(0-t)

The recorded AUC(0-t) for CCc1ccc(CCOc2ccc(CC3SC(=O)NC3=O)cc2)nc1 (racemic) [Pioglitazone] is 5620 ng·h/mL
